Target: Recombinant human LSD1 (Homo sapiens, UniProt O60341)
Assay: LSD1 inhibition assay (HTRF LSD1 Histone H3K4 mono-demethylation assay, me1->me0)
Format: biochemical
Conditions: 20 nM recombinant human LSD1, 95 nM H3K4(me1) biotinylated peptide, 15 min preincubation, 60 min at 25° C., read-out: LSD1 inhibition IC50 (nM range)
measurement label: IC50

Enquiry: State its IC50: Cc1cc(-c2cccc(CC3CNCCO3)c2-c2ccns2)ccc1C#N (centres unmarked) [Example 43]
Return: 25 to 100 nM

Further cases:
Enquiry: Report measured IC50; entry is N#Cc1ccc(-c2cccc(CC3CNCCO3)c2-c2cccnc2)cc1F (centres unmarked) [Example 32]
Return: 25 to 100 nM

Enquiry: Let me know recorded IC50 for CN1CC2CN(Cc3cccc(-c4ccc(C#N)c(F)c4)c3C3CC3)CC21 (centres unmarked) [Example 277] , thanks.
Return: 25 to 100 nM

Enquiry: Provide measured IC50 value, entry: Cc1ncc(-c2c(CC3CNCCO3)cccc2-c2ccc(C#N)c(F)c2)o1 (centres unmarked) [Example 69]
Return: 100 to 1000 nM

Enquiry: For the compound N#Cc1ccc(-c2ccc(F)c(CN3C[C@]4(N)CC[C@H]3C4)c2Cl)cc1F [Example 208] , give its reported IC50.
Return: 25 to 100 nM

Enquiry: Dear colleague, please send me the reported IC50 for COc1cnc(-c2ccc(CC3CNCCO3)cc2-c2ccc(C#N)c(F)c2)cn1 (centres unmarked) [Example 132] when you can.
Return: > 1000 nM

Enquiry: Output IC50 of CCC1(O)CCN(c2ccc(CC3CNCCO3)cc2-c2ccc(C#N)c(F)c2)CC1 (centres unmarked) [Example 33]
Return: 25 to 100 nM

Enquiry: Please give the documented IC50 of N#Cc1ccc(-c2cccc(CN3[C@@H]4CC[C@H]3[C@@H](N)C4)c2C2CC2)cc1F (racemic) [Example 176]
Return: 25 to 100 nM

Enquiry: Return value of IC50 for input N#Cc1ccc(-c2cccc(CC3CNCCCO3)c2C2CC2)cc1F (centres unmarked) [Example 82] , no commentary.
Return: 25 to 100 nM

* * *

Target: Recombinant human LSD1 (Homo sapiens, UniProt O60341)
Assay: LSD1 inhibition assay (HTRF LSD1 Histone H3K4 mono-demethylation assay, me1->me0)
Assay type: biochemical
Conditions: 20 nM recombinant human LSD1, 95 nM H3K4(me1) biotinylated peptide, 15 min preincubation, 60 min at 25° C., read-out: LSD1 inhibition IC50 (nM range)
measurement label: IC50

These solved cases illustrate the format of a correct answer.
Enquiry: Please indicate IC50 recorded for CN1CCOC(Cc2ccc(N3CCC3)c(-c3ccc(C#N)c(F)c3)c2)C1 (stereo not shown)
Return: > 1000 nM

Enquiry: Find the measured IC50 of N#Cc1ccc(-c2cccc(CC3CNCCO3)c2-c2cnccn2)cc1F (stereo not shown) and report it.
Return: 25 to 100 nM

Enquiry: // Input: CCCc1c(CN2[C@H]3CC[C@@H]2[C@H](N)C3)cccc1-c1ccc(C#N)c(F)c1 (single isomer, unassigned) . Output its IC50 only.
Return: 25 to 100 nM

Next:
Enquiry: Supply reported IC50 belonging to this molecule: `Cn1nc2ccc(-c3ccc(CN4C[C@]5(N)CC[C@H]4C5)cc3-c3ccc(C#N)c(F)c3)cc2c1Cl`
Return: < 10 nM

These entries and their values trace back to patent US20260209214A1.
